Taken from ChEMBL document CHEMBL5316339.

EXPERIMENTAL_TARGET: Glutamate NMDA receptor; GRIN1/GRIN2B (Homo sapiens, UniProt Q05586+Q13224)
Sequence (Q13224 whole entry, other chains not shown): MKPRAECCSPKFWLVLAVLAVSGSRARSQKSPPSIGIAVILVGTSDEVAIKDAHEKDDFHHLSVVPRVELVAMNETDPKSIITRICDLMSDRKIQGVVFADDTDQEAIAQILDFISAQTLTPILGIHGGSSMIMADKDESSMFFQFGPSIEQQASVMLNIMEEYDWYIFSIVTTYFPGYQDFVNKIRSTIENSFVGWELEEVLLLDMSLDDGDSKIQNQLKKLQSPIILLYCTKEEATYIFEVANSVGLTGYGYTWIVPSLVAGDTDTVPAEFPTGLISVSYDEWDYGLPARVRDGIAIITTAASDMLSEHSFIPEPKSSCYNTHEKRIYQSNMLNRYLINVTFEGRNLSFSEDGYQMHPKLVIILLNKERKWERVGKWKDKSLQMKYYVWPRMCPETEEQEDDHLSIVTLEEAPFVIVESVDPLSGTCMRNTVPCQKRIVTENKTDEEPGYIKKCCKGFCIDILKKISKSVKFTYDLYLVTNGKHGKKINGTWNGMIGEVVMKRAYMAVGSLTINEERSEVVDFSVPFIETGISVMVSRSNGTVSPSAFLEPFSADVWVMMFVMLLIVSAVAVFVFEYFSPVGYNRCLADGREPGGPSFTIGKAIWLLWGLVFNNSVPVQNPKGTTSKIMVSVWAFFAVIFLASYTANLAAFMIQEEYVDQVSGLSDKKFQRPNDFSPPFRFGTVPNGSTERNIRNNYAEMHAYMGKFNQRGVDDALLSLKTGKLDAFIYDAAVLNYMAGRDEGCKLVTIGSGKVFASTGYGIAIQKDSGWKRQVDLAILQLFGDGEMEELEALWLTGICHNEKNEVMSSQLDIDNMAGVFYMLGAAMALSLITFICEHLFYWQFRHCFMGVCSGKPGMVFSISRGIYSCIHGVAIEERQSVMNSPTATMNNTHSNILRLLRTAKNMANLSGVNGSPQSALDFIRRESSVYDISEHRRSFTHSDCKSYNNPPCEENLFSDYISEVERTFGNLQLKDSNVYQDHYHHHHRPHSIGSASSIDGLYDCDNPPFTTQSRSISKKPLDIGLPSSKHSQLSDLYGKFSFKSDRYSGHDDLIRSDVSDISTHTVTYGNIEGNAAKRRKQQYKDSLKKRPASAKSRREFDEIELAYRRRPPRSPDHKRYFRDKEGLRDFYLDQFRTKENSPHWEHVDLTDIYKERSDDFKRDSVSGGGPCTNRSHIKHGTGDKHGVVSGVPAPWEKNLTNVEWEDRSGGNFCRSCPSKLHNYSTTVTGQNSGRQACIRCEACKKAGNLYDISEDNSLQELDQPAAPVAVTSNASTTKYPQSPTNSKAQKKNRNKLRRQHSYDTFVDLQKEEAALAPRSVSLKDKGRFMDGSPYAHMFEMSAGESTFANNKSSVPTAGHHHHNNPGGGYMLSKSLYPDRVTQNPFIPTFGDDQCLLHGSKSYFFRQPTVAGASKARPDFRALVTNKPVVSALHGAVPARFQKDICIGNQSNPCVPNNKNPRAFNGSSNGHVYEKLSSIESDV
TEST_PROTOCOL: Negative allosteric modulation of human GluN1A/GluN2B receptor expressed in T-REX-CHO cells preincubated for 5 mins followed by glutamate and glycine addition and measured after 5 mins by FLIPR assay
Format: cell-based
pIC50: −log10 of the molar value.
Listing: pIC50 of selected compounds
VALUE_TYPE: pIC50

1. Fc1ccc(-n2cc(COc3nccc(N4CC(F)C4)n3)nn2)cc1OC(F)F | 7.80
2. FC(F)Oc1cc(-n2cc(CNc3ncccn3)nn2)ccc1Cl | 6.44
3. FC(F)Oc1cc(-n2cc(COc3cnccn3)nn2)ccc1Cl | 6.22
4. CC(C)(O)c1cnc(OCc2cn(-c3ccc(F)c(OC(F)F)c3)nn2)nc1 | 7.31
5. FC(F)Oc1cc(-n2cc(COc3cccnn3)nn2)ccc1Cl | 6.24
6. Cc1cnc(OCc2nnn(-c3cccc(C(F)F)c3)c2C)nc1 | 5.92

====

TEST_PROTOCOL: Drug concentration in Sprague-Dawley rat plasma at 10 mg/kg, po measured after 2 hrs
Type: ADME, organism-based
VALUE_TYPE: concentration at 2 h (ng/mL)

1) FC(F)Oc1cc(-n2cc(COc3ncccn3)nn2)ccc1Cl | 8650
2) COCc1ccnc(OCc2cn(-c3ccc(F)c(OC(F)F)c3)nn2)n1 | 235

====

TEST_PROTOCOL: Drug concentration in Sprague-Dawley rat plasma at 10 mg/kg, po measured after 0.25 hrs
Assay type: ADME, organism-based
VALUE_TYPE: concentration at 0.25 h (ng/mL)

1) FC(F)Oc1cc(-n2cc(COc3ncccn3)nn2)ccc1Cl | 3040

====

Sequence of the target: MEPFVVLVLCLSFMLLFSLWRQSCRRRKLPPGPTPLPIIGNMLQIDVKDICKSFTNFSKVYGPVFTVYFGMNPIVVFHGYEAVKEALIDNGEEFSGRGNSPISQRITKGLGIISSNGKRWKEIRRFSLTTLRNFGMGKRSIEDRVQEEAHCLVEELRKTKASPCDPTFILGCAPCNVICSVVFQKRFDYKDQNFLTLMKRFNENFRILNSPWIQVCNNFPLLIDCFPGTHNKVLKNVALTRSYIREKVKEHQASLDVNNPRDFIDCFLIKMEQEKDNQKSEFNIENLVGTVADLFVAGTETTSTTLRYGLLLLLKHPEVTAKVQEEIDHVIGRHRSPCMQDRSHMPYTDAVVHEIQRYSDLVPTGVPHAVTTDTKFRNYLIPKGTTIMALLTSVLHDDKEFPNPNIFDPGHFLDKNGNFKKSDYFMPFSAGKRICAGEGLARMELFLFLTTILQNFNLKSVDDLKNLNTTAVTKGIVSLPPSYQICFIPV
pIC50: −log10 of the molar value.
VALUE_TYPE: pIC50

1. FC(F)Oc1cc(-n2cc(Cn3ccnc3)nn2)ccc1Cl | 5.47

====

TEST_PROTOCOL: Thermodynamic solubility in aqueous phosphate buffer at pH 7
Assay type: physicochemical
COND: read-out: Therm_solubility
The threshold is inclusive: solubility thermodynamic of exactly 300 µM counts as Y; values below receive N.

1. Cc1cnc(OCc2cn(-c3ccnc(C)c3)nn2)nc1 | Y
2. Nc1nc(OCc2cn(-c3ccc(F)c(OC(F)F)c3)nn2)ncc1F | N
3. Fc1ccc(-n2cc(COc3nccc(N4CC(F)C4)n3)nn2)cc1OC(F)F | N
4. CNc1ccnc(OCc2cn(-c3ccc(F)c(OC(F)F)c3)nn2)n1 | N
5. Cc1cnc(OCc2cn(-c3cccc(C(F)F)c3)nn2)nc1 | N
6. Fc1ccc(-n2cc(COc3ncc(N4CCC4)cn3)nn2)cc1OC(F)F | N
7. CC(C)(O)c1cnc(OCc2cn(-c3ccc(F)c(OC(F)F)c3)nn2)nc1 | Y
8. Cc1ccnc(OCc2cn(-c3ccc(F)c(OC(F)F)c3)nn2)n1 | N
9. COCc1ccnc(OCc2cn(-c3ccc(F)c(OC(F)F)c3)nn2)n1 | N
10. Cc1cnc(OCc2nnn(-c3cccc(C(F)F)c3)c2C)nc1 | Y
